Values were extracted from paper PMC3608651.

Let's look at some substances and their measured Bind A*30:02.
# System tested: HLA-A*30:02 (Homo sapiens, UniProt P04439, D101N/D140H/D185E/E176R/F33S/G80R/H175R/K168Q/Q94H/R138E/R41S/V100E)
# Type: binding
# Condition label: percent relative the binding of positive control peptide […]; duplicated experiments; positive binder >40%
Your answer is read as %, so omit the unit and give the number.

| Substance | Display unit | Test result |
| --- | --- | --- |
| DHAGDMAGY [Rv0288_13–21m1] | % | 141 |
| MGRDIKVQF | % | 61 |
| SQGMGPSLI | % | 0 |

Which measured Bind A*30:02 value corresponds to `AVYLLDGLR` ?
115

# query: Bind A*30:02 of entry `YSDWYSPAC`
2

Suppose we examine the substance `MKGDLQSSL` ; what Bind A*30:02 value has been reported?
90

# Bind A*30:02 lookup, item `QQIPKLVAN`
60

Can you share its Bind A*30:02? I mean this substance: `AYHPQQFIY`
111

----------
# System tested: HLA-B*58:01 (Homo sapiens, UniProt P01889, A329T/C349S/D201E/D98Y/E176V/E187L/E204Q/E69T/G107R/I218V/I90N/K202T/L105A/L119I/N104I/N87E/Q89R/Q94S/R106L/R155S/R180L/R86G/S101N/S121R/S35A/S48A/T118I/V127L/V306I/V36M/Y140S/Y91M)
# Assay type: binding
# Condition label: percent relative the binding of positive control peptide […]; duplicated experiments; positive binder >40%
Assay endpoint: Bind B*58:01
Include the unit right after the number.

| Input sequence | Test result |
| --- | --- |
| IMYNYPTML [Rv0288_4–12m1] | 37% |
| IYAGSLSAL | 16% |
| YYQSGLSIV | 0% |

# lookup: Bind B*58:01 of QNLGAEIAV [Rv0288_26–34m1]
0%

Request the reported Bind B*58:01 associated with `ILAAYHPQQ`
30%

For the sequence `FLTSELPQW` , what Bind B*58:01 is on record?
71%

Item `LLDGLRAQD` has what recorded Bind B*58:01?
0%

Consider the sequence TYQAWQAQW [Rv0288_50–58] and give its measured Bind B*58:01.
119%

Looking for the measured Bind B*58:01 of `GGNNSPAVY` , can you help?
0%

Param item = `AAGGHNAVF` ; retrieve measured Bind B*58:01.
101%

Which Bind B*58:01 is listed for `VYLLDGLRA` ?
0%

Record request: Bind B*58:01 value, item RAYHAMSST [Rv0288_67–75wt]
39%

Entry under review: `RSSNLKFQD` . Reported Bind B*58:01?
14%

# input sequence: `LAMGDAGGY` ; wanted: its Bind B*58:01
39%

Give the measured Bind B*58:01 of MAMMARDTA [Rv0288_81–89] .
23%

----------
# System tested: HLA-B*58:01 (Homo sapiens, UniProt P01889, A329T/C349S/D201E/D98Y/E176V/E187L/E204Q/E69T/G107R/I218V/I90N/K202T/L105A/L119I/N104I/N87E/Q89R/Q94S/R106L/R155S/R180L/R86G/S101N/S121R/S35A/S48A/T118I/V127L/V306I/V36M/Y140S/Y91M)
# Assay type: binding
# Condition label: percent relative the binding of positive control peptide […]; duplicated experiments; positive binder >40%
hey, just use class 1 if measured Bind B*58:01 is less than 20%, otherwise class 0

Below, 5 sequences whose answers are already recorded.
| Input sequence | Group |
| --- | --- |
| DAYNAAGGH | class 0 |
| RLWVYCGNG | class 1 |
| LTSELPQW L | class 0 |
| AMILAAYHP | class 0 |
| QIMYNYPAM [Rv0288_3–11wt] | class 0 |

API: query returns whether the sequence falls strictly under 20% in Bind B*58:01. Query: `GANIPAEFL`
class 1

Field: below-cutoff. Rule: recorded Bind B*58:01 strictly less than 20%. Subject: IMYNYPAML [Rv0288_4–12]
class 0
